# koff listing for each entry below
- EXPERIMENTAL SYSTEM: T1, monkey Trop2 protein (Sino Biological, #90893-C08H) (monkey, UniProt A0A2K5UE71 27-274)
- T1 construct: bought protein; also called monkey Trop2 protein antigen (His tag)
- T1 sequence: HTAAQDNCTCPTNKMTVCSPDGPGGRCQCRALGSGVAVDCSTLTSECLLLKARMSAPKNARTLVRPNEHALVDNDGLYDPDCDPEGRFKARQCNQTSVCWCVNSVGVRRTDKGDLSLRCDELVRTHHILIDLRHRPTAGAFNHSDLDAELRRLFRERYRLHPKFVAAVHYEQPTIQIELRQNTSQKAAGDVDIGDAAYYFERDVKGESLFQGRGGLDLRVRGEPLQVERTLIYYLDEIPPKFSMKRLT
- ASSAY INFO: BLI, Octet RED96, AHC sensor
The reply should be a number in s⁻¹, with the unit left off.

Worked examples follow.
PR001134 (antibody, human IgG1, kappa, V domains shown, fully human IgG1/kappa; also called antibody No. (6)) VH: QVQLVESGGGVVQPGRSLRVSCIASGFFFSSYGMHWVRQAPGKGLEWVAVIWYDGSNEDYVDSVKGRFTISRDNSKNTLYLQMNSLRGEDTAMYYCARGGYNSGWWAFDIWGQGTMVTVSS VL: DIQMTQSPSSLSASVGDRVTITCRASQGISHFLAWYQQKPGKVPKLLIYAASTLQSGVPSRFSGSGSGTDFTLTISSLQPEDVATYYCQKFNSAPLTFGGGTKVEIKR    0.000512
PR001159 (antibody, human IgG1, kappa, V domains shown, fully human IgG1/kappa; also called antibody No. (21)) VH: QVQLVESGGGVVQPGRSLRLSCEASGFTFSHYGMHWVRQAPGKGLEWVAVIWYDGIKTNYVESVKGRFTISRDNSKNTLNLQMNRLRAEDTAVYYCARDGGFGESNYYGLDVWGQGTTVTVSS VL: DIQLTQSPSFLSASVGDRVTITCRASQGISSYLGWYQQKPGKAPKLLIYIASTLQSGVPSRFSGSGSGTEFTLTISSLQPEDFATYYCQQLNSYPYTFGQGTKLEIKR    3.39e-05

Request: Given PR001133 (antibody, human IgG1, kappa, V domains shown, fully human IgG1/kappa; also called antibody No. (5)) VH: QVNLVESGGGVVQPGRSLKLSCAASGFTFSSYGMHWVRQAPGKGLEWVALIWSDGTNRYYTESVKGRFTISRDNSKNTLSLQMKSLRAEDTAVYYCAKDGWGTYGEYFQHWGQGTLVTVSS VL: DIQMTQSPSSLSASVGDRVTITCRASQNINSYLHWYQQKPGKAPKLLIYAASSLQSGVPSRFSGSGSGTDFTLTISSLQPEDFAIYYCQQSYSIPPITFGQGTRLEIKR , state its recorded koff.
Result: 0.000149

Request: State the recorded koff for this entry: PR001132 (antibody, human IgG1, kappa, V domains shown, fully human IgG1/kappa; also called antibody No. (4)) VH: QVELVESGGGVVQPGRSLRLSCGASGFTFSSYNMYWVRQAPGKGLEWVAGIWDDGNNKYYANSVKGRFTISRDNSKNTLYLQMNSLRTEDTALYYCAKDGWGSYGEYFQHWGQGTLVTVSS VL: DIQMTQSPSSLSASVGERVTITCRASQNINSYLSWYQQKPGKAPKLLIYAASSLQNGVPSRFSGSGSGTDFTLTISSLQPEDFATYYCQQSFSTPPITFGQGTRLEIKR
Result: 1.43e-05

Request: What does the record list as koff for PR001153 (antibody, human IgG1, kappa, V domains shown, fully human IgG1/kappa; also called antibody No. (16)) VH: QVQLQESGPGLVKPSGTLSLTCAVSGGSISSSNWWSWVRQPPGKGLEWIGEIYHDGSTDYNPSLKSRVIISVDKSKNQFSLKVRSVTAADTAVYYCARDNWGFDYWGQGTLVTVSS VL: EIVLTQFPGTLSLSPGERATLSCRSSQSVSSSYLAWYQQKPGQAPRLLISGASSRATGIPDRFSGSGSGTDFTLTISRLEPEDFAVYYCQQYGSSPRTFGQGTKVEIKR ?
Result: 1.07e-05

Every entry's value here was drawn from patent US20240067748A1.
